Attribute: remaining at 4 h, 263 µg/mL
# measurement description: Degradation of apelin peptides by plasma from fasted normal NIH Swiss mice (rp-HPLC, MALDI-TOF MS)
# Format: in vitro ADME
# particulars: NIH Swiss, mouse, plasma, pH 7.4
Numbers only here, please. The scale is %.

Recorded results for 2 compounds are shown here.
CSCC[C@H](NC(=O)[C@@H]1CCCN1C(=O)CNC(=O)[C@H](CCCCN)NC(=O)[C@H](Cc1c[nH]cn1)NC(=O)[C@H](CO)NC(=O)[C@H](CC(C)C)NC(=O)[C@H](CCCNC(=N)N)NC(=O)[C@@H]1CCCN1C(=O)[C@@H](N)CCCNC(=N)N)C(=O)N1CCC[C@H]1C(=O)N[C@@H](Cc1ccccc1)C(=O)O [Apelin-12, reference compound] | 39.5
CSCC[C@H](NC(=O)[C@@H]1CCCN1C(=O)CNC(=O)[C@H](CCCCN)NC(=O)[C@H](Cc1c[nH]cn1)NC(=O)[C@H](CO)NC(=O)[C@H](CC(C)C)NC(=O)[C@H](CCCNC(=N)N)NC(=O)[C@@H]1CCCN1C(=O)[C@H](CCCNC(=N)N)NC(=O)[C@@H]1CCC(=O)N1)C(=O)N1CCC[C@H]1C(=O)N[C@@H](Cc1ccccc1)C(N)=O [(pGlu)apelin-13-amide] | 85

Now consider a different compound.
Notebook: CSCC[C@H](NC(=O)[C@@H]1CCCN1C(=O)CNC(=O)[C@H](CCCCN)NC(=O)[C@H](Cc1c[nH]cn1)NC(=O)[C@H](CO)NC(=O)[C@H](CC(C)C)NC(=O)[C@H](CCCNC(=N)N)NC(=O)[C@@H]1CCCN1C(=O)[C@H](CCCNC(=N)N)NC(=O)[C@@H](N)CCC(N)=O)C(=O)N1CCC[C@H]1C(=O)N[C@H](C(=O)O)C(C)C , remaining at 4 h, 263 µg/mL read as 66.5
